Entries and their measured log2 fold change of degron read counts follow.
Target: T1, CRBN, Q96SW2;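 further: pooled lentiviral library of zinc finger degron-EGFP fusions in mCherry-positive Jurkat cells, FACS-sorted after compound exposure, with degron abundance counted by next-generation sequencing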
T1 chain: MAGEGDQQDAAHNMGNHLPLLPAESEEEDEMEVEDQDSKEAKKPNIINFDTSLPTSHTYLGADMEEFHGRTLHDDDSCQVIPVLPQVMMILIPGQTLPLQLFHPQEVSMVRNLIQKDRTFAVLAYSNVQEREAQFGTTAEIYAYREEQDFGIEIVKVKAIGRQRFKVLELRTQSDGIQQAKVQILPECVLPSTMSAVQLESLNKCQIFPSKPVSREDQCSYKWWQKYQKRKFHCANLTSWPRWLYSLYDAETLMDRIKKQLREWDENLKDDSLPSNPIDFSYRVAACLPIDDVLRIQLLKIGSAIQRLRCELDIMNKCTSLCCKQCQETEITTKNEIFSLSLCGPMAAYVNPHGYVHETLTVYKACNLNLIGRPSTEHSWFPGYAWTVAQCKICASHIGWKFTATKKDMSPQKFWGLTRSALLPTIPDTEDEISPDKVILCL
Assay: log2 fold change of degron read counts, EGFP-low vs EGFP+ sorted cells (limma voom), compound-induced degradation; higher = more compound-induced degradation of the degron-EGFP fusion; degrons are variants of IKZF1/3 zinc finger 2; compound dose not given here
Details: Jurkat; 18 h; compound: compound 22 (5-morpholino-thalidomide)
Whole data set: some 8,300 sequences, median “log2 fold change of degron read counts, EGFP-low vs EGFP+ sorted cells (limma voom), compound-induced degradation” near -1.1, cut for the highest 2% near 3.2. The entries come from a sample that favours the highest values as a whole.
readout.kind: log2 fold change of degron read counts

>  <chain.sequence>
FYCNICGAQFTQKGNLLRHIKL [46F_47Y_49N_50I_52G_53A_54Q_55F_67L_, Q9UKT9]

>  <readout.kind>
log2 fold change of degron read counts

>  <assay.result>
3.15

$$$$
>  <chain.sequence>
FQCNICGAQFTQKGNLLRHIKL [46F_47Q_49N_50I_52G_53A_54Q_55F_67L_, Q9UKT9]

>  <readout.kind>
log2 fold change of degron read counts

>  <assay.result>
1.3

$$$$
>  <chain.sequence>
FECPICGRSFTQKGNLLRHIKL [46F_47E_49P_50I_52G_53R_54S_55F_67L_, Q9UKT9]

>  <readout.kind>
log2 fold change of degron read counts

>  <assay.result>
-1.84

$$$$
>  <chain.sequence>
FVCNICGAQFTQKGNLLRHIKL [46F_47V_49N_50I_52G_53A_54Q_55F_67L_, Q9UKT9]

>  <readout.kind>
log2 fold change of degron read counts

>  <assay.result>
1.47

$$$$
>  <chain.sequence>
FLCNQCGHSFTQKGNLLRHIKL [46F_47L_49N_50Q_52G_53H_54S_55F_67L_, Q9UKT9]

>  <readout.kind>
log2 fold change of degron read counts

>  <assay.result>
-2.99

$$$$
>  <chain.sequence>
FWCNICGAQFTQKGNLLRHIKL [46F_47W_49N_50I_52G_53A_54Q_55F_67L_, Q9UKT9]

>  <readout.kind>
log2 fold change of degron read counts

>  <assay.result>
3.59

$$$$
>  <chain.sequence>
FDCNQCGAFFTQKGNLLRHIKL [46F_47D_49N_50Q_52G_53A_54F_55F_67L_, Q9UKT9]

>  <readout.kind>
log2 fold change of degron read counts

>  <assay.result>
-1.99

$$$$
